Cited source: ChEMBL document CHEMBL3988442

- Organism: Homo sapiens
- assay.overview: To identify inhibition of the IFN signalling (Jak-Stat) pathway via expression of an eGFP reporter gene under the control of an IFN-stimulated response element (ISRE) containing MxA promoter.
- Format: functional
- Set-up: scale not given: direction of the effect not stated beside the values
- condition.description: 30 µM

| compound | Percent Effect / % |
| --- | --- |
| CCCn1nc(C)c(CNC(=O)C2COc3c(cccc3OC)C2)c1C (configuration not stated) | 10.2 |
| CN(CCCC#N)C1CCCN(Cc2noc(C3CC3)n2)C1 (configuration not stated) | -4.02 |
| c1ccc2oc(CCCN3CCCC3Cn3cncn3)nc2c1 (configuration not stated) | 13.6 |
| Cc1ccc(C(CNCc2ccncc2)N2CCOCC2)s1 (configuration not stated) | 18.3 |
| CN(C)C(=O)CN1C[C@@H]2CC[C@H](C1)N(Cc1cccc(Cl)c1Cl)C2 | 14 |
| CCc1csc(C2CCCN(C(=O)c3c[nH]c(C)n3)C2)n1 (configuration not stated) | -6.54 |
| C1CC(c2noc(C3CC3)n2)CN(Cc2noc(C3CC3)n2)C1 (configuration not stated) | -3.78 |
| CN(Cc1nc(N)c2ccccc2n1)CC1CCCN1c1cccnn1 (configuration not stated) | -8.77 |
| CSCC(C)(O)CNC(=O)c1cc(Br)ccc1Cl (configuration not stated) | 10.3 |
| Cn1c(Cn2cccn2)nnc1C1CCN(Cc2cccnc2N)CC1 | 12.7 |
| O=C(CCCc1ccc(F)cc1)N1C[C@@H](CN2CCOCC2)[C@@H](CO)C1 | -3.47 |
| CSc1ccccc1CN1CCn2nc(CNC(C)=O)cc2C1 | 15.7 |

* * *

- target.entity: Chromo domain-containing protein 1 (Saccharomyces cerevisiae (strain ATCC 204508 / S288c) (Baker's yeast))
- assay.overview: ScCHD-1 Enzyme Inhibition Assay; note: in the data most compounds retested in dose-response had high values
- Type: functional
- Design: scale not given: direction of the effect not stated beside the values
- condition.description: 30 µM
Entries annotated with measured Percent Effect

| molecule | Percent Effect [%] |
| --- | --- |
| O=C(c1cnccn1)N1CCN2C[C@H](OCc3ccccn3)C[C@H]2C1 | 3.56 |
| CCCN1CCN(C(=O)c2scnc2C)CC1 | -4.16 |
| COCCNC(=O)C(C)n1cc(Br)cn1 (configuration not stated) | 135 |
| CCn1c(N)nc2cc(C(=O)NCCc3sccc3C)cnc21 | -6.44 |
| Cc1cnc(CN(Cc2ccccc2)CC(O)c2cccs2)cn1 (configuration not stated) | -11.6 |
| Cc1cc(N2CCC(N(C)C(=O)Nc3ccccc3)CC2)nc(C)n1 | -2.89 |
| O=C(c1cccnc1N1CCOCC1)N1CCCC(n2ccnc2)C1 (configuration not stated) | -9.1 |
| CC(=O)N(Cc1noc(C)n1)C1CCN(Cc2ccon2)C1 (configuration not stated) | 52.1 |
| CN(C)C(=O)CN1CCCCC1c1nc(N)ncc1-c1ccccc1 (configuration not stated) | -5.48 |
| Cc1nc(CN2C(=O)COC3(CCN(Cc4ccco4)CC3)C2C)cs1 (configuration not stated) | -2.61 |
| COc1ccccc1C(=O)N(C)Cc1ncc(C)c(OC)c1C | -15.8 |
| c1ccc(-c2cnc(CN3CCn4c(nnc4C4CC4)C3)o2)cc1 | -9.44 |

* * *

- target.entity: Tyrosyl-tRNA synthetase, putative (Trypanosoma cruzi (strain CL Brener))
- assay.overview: Trypanosoma cruzi tyrosyl tRNA synthetase (TcYRS) SOP
- Assay type: functional
- Parameters: scale not given: direction of the effect not stated beside the values
- condition.description: 30 µM
Below, each of the molecules is paired with its reported Percent Effect value.

| molecule | Percent Effect / % |
| --- | --- |
| COc1cccc(C(=O)Nc2cc(CC(C)C)nn2C)c1 | 14.6 |
| CCc1nc(CC(=O)N2CCn3c(nnc3C(C)C)C2)cs1 | 12.2 |
| Cc1noc(C(C)C)c1C(=O)NCc1cccc(N(C)C)c1 | 9.76 |
| CN(C)C(=O)N1CCN(Cc2ccccc2)[C@@H]2CS(=O)(=O)C[C@@H]21 | 17.1 |
| O=C(NC[C@@H]1CCCN1)c1cc(COc2cccc(C(F)(F)F)c2)[nH]n1 | 7.69 |
| Cc1cccc(CN2CCc3ncnc(N4CCOCC4)c3CC2)n1 | 1.24 |
| O=C(NCCOc1ccc2c(c1)OCO2)C1CC(=O)N(CC2CC2)C1 (configuration not stated) | 23.5 |
| O=C(NCC1CC1)[C@H]1C[C@@H]2CCN(Cc3nccs3)C[C@@H]2O1 | 15.4 |
| CCc1nc2ccccc2c(=O)n1CC1(O)CCN(S(C)(=O)=O)CC1 | 14.3 |
| Cc1cc(NC(=O)CN2CCn3c(nnc3C(C)C)C2)no1 | 25.9 |
| Cc1cccc(CN2CCc3ncnc(C)c3CC2)n1 | 8.64 |
| COCc1cnc2n1CCN(Cc1cccnc1)C2C (configuration not stated) | 5 |
| Cc1cc(CC(=O)N(CC2CN(C)CCO2)c2nccs2)no1 (configuration not stated) | 6.1 |
| COc1ccccc1OCCN1CCCC(c2noc(C3CC3)n2)C1 (configuration not stated) | 6.17 |
| COCCN1CCC2(CC1)CN(C(=O)N(C)C)c1ccc(C)cc12 | 5.13 |
| NC(=O)c1cc(NC(=O)N2CCCCCC2)ccc1F | 13.4 |
| OCc1ccc(Cl)c(NCc2cccnc2)c1 | -5.2 |
| CN1CC(=O)N(c2cnn(C)c2)CC12CCN(Cc1nccn1C)C2 (configuration not stated) | 6.17 |
| COc1cccc(CN(C)S(=O)(=O)N2CCOCC2)c1 | 18.2 |
| O=C(NCCNc1cnccn1)C1CCN(C(=O)N2CCCC2)CC1 | 17.7 |
| CC(C)COCC(NC(=O)c1cccnc1)c1ccco1 (configuration not stated) | 11.1 |
| Cn1cc(CN2CC[C@@H]3[C@@H](CCC(=O)N3CCc3c[nH]cn3)C2)cn1 | 6.17 |
| CC(C)CN1CCCC2(CCN(C(=O)c3cnccn3)C2)C1 (configuration not stated) | -3.85 |
| Cc1oncc1C(=O)N1CCC2(C1)CN(c1cccnc1)C(=O)CN2C (configuration not stated) | 5 |
| Cc1ncccc1OC1(C(=O)NCCCN2CCOCC2)CCNCC1 | 9.76 |
| CNS(=O)(=O)Cc1ccc(CNC(=O)c2cccc(C)n2)cc1 | 21.9 |
| Cc1nc(C2CCCN(C(=O)c3cnn(C(C)(C)C)c3)C2)no1 (configuration not stated) | 12.7 |
| Cc1nccn1C1CCCN(C(=O)C2=NN(C)C(=O)CC2)C1 (configuration not stated) | 6.17 |
| CN1CCN(C(=O)[C@H]2C[C@@H]3CCN(c4ncc(F)cn4)C[C@@H]3O2)CC1 | 17.5 |
| Cc1cccc(Cn2c3c(ccc2=O)CCN(Cc2ccoc2)CC3)n1 | 6.17 |
| Cc1cc(CN2CCc3nn(C(C)C)c(=O)cc3C2)no1 | 8.54 |
| COCCC(=O)N1CCC2(COCc3cnc(-c4ccccc4)nc32)C1 (configuration not stated) | 3.85 |
| CC(C#N)CSc1ccccc1NCC(=O)Nc1ccc(F)cc1 (configuration not stated) | -10 |
| O=C1CC(c2cccs2)c2cnn(C3CCCC3)c2N1 (configuration not stated) | -6.17 |
| Cc1cc(F)ccc1CN1CCCC2(C1)OCCO2 | -3.66 |
| Cc1nc2ccccc2c(=O)n1CCC(=O)N1CCSCC1 | 17.1 |
| COc1ccc(C(=O)N2CCC(Nc3cccnn3)CC2)c(OC)c1 | 2.53 |
| CNC(=O)[C@H]1C[C@H]2OCC[C@H]2N(Cc2cccc3ccccc23)C1 | 8.97 |
| Clc1ccc2oc(C3CCN(Cc4cccnc4)CC3)nc2c1 | 12.2 |
| COc1ccc(CCC(=O)NC2CCC(O)CC2)cc1OC (configuration not stated) | 6.17 |
| Cc1cc(CN2CC[C@H]3C(=O)N(c4ccccc4)CCO[C@H]3C2)no1 | 11.5 |
| O=C(NCCc1nnc2n1CCC2)NCC1(c2cccc(F)c2)CC1 | 5.2 |
| O=C(c1cc(COc2ccc3c(c2)OCO3)[nH]n1)N1CCCC1 | 6.17 |
| CC(O)CN1CCN(C(=O)c2cccc(CC#N)c2)CC1 (configuration not stated) | 2.44 |
| Cc1ncsc1CN1C[C@@H](OCC2CC2)[C@H]2OCCC[C@H]21 | 16.1 |
| c1csc(CN2CCn3c(Cn4cncn4)cnc3C2)n1 | 1.28 |
| O=C(Nc1ccccn1)N(CCO)Cc1ccsc1 | 17.1 |

* * *

- target.entity: Ubiquitin-activating enzyme e1, putative (Leishmania donovani (strain BPK282A1)) (UniProt E9BSI1)
- Sequence (E9BSI1 as listed by the source): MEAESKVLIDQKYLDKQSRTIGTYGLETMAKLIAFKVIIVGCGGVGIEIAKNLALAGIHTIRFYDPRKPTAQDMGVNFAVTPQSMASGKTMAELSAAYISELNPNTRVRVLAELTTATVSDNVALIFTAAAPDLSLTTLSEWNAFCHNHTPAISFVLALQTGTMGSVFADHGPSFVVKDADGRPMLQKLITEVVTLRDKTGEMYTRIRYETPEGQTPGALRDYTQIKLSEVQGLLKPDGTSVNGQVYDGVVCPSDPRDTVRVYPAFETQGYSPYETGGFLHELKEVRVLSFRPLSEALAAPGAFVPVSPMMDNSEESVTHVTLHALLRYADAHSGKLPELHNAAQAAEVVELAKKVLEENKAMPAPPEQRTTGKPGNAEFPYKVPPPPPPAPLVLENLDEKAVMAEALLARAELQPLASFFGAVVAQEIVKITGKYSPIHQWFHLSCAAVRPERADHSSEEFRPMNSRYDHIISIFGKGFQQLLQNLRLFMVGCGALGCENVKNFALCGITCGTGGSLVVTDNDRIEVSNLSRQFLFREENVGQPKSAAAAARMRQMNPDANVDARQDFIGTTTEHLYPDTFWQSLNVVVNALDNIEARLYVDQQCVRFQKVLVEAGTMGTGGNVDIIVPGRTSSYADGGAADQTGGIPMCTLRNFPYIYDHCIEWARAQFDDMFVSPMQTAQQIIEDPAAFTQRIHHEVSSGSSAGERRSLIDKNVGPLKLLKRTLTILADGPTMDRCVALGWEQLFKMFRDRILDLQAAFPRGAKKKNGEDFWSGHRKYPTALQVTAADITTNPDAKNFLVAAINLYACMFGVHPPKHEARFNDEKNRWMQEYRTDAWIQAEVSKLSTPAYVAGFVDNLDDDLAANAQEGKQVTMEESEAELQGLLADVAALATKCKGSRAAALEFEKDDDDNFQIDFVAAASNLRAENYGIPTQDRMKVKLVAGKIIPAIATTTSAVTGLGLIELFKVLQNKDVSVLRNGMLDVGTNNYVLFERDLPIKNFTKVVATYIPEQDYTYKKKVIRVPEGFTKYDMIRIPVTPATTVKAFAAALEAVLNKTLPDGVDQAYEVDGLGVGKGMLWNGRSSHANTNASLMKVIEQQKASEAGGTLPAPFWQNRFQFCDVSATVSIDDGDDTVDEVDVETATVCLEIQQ
- assay.overview: Leishmania donovani Ubiquitin Activating Enzyme (LdE1)
- Format: functional
- Design: scale not given: direction of the effect not stated beside the values
- condition.description: 30 µM
Entries with a potency or affinity are not part of this list.
quantity.name: Percent Effect (%)

| compound | quantity.name | value.observed |
| --- | --- | --- |
| Cn1cnnc1C1CCCN(C(=O)c2ccc3c(c2)OCCCO3)C1 (stereo unspecified) | Percent Effect | 18.2 |
| O=C(CCC1CCCO1)NCc1ccnc(-n2cccn2)c1 (stereo unspecified) | Percent Effect | 13.2 |
| O=C(NCCCN1CCOCC1)Nc1cnc2cc(Cl)ccc2c1O | Percent Effect | 17.6 |
| CCC(NC(=O)C1CCN(S(C)(=O)=O)CC1)c1ccc(OC)c(OC)c1 (stereo unspecified) | Percent Effect | -2.6 |
| CC1COCCN1Cc1nc(-c2cccs2)no1 (stereo unspecified) | Percent Effect | 10.8 |
| Cc1cc(C)n(CCC(=O)N2CCC(c3nc(C(C)C)no3)CC2)n1 | Percent Effect | 20.8 |
